Tested on: Enterococcus faecalis ATCC 10741
Test: Antimicrobial microdilution assay, E. faecalis
Assay type: cell-based
Conditions: Enterococcus faecalis, ATCC10741; E. faecalis, microdilution, 24 h; read-out: IC50 ± S.E
property_measured: IC50 (µM)
Kindly answer with a numeric value in µM, unit omitted.

For orientation, consider the following solved cases.
| compound_structure_string | u | IC50 |
| --- | --- | --- |
| CC(=O)O[C@@H]1[C@H](Oc2c(C)c3c4c(c2O)[C@@H](C)CC[C@@H]4[C@@H](C)C[C@H]3C=C(C)C)O[C@@H](C)[C@@H](O)[C@H]1O | µM | 20.2 |
| CC(C)=C[C@@H]1C[C@H](C)[C@H]2CC[C@H](C)c3c(O)c(O[C@@H]4OC[C@@H](O)[C@@H](O)[C@@H]4O)c(C)c1c32 | µM | 4.38 |

From here, focus on the item given below.
[ask] Retrieve IC50 measured for CC(C)=C[C@@H]1C[C@H](C)[C@H]2CC[C@H](C)c3c(O)c(O[C@@H]4O[C@@H](C)[C@@H](O)[C@@H](O)[C@@H]4O)c(C)c1c32 and print it.
[reply] 37.4

---

System: Enterococcus faecalis ATCC 10741
Experiment: Antimicrobial microdilution assay, E. faecalis
Format: cell-based
Settings: Enterococcus faecalis, ATCC10741; E. faecalis, microdilution, 24 h; read-out: IC50 ± S.E
The following compounds are listed with their measured pIC50 values.
pIC50 here: minus log base 10 of the concentration, concentration in moles per litre.

| compound | property_measured | experimental_result |
| --- | --- | --- |
| CC(=O)OC1COC(Oc2c(C)c3c4c(c2O)C(C)CCC4C(C)CC3C=C(C)C)C(O)C1OC(C)=O (stereo not drawn) [3-O-Ac-PsU] | pIC50 | 5.12 |
| CC(C)=CCC[C@H](C)[C@H]1CC[C@H](C)c2c1cc(C)c(O[C@@H]1OC[C@@H](O)[C@@H](O)[C@@H]1O)c2O [seco-PsJ] | pIC50 | 5.39 |

From here, focus on the item given below.
[ask] Retrieve pIC50 measured for CC(C)=CCC[C@H](C)[C@H]1CC[C@H](C)c2c1cc(C)c(O[C@@H]1O[C@@H](C)[C@@H](O)[C@@H](O)[C@@H]1O)c2O [seco-PsK] and print it.
[reply] 5.42

---

Test system: Enterococcus faecalis ATCC 10741
Assay: Antimicrobial microdilution assay, E. faecalis
Assay type: cell-based
Settings: Enterococcus faecalis, ATCC10741; E. faecalis, microdilution, 24 h; read-out: IC50 ± S.E
property_measured: pIC50
pIC50 here: minus log base 10 of the concentration, concentration in moles per litre.

| compound | pIC50 |
| --- | --- |
| CC(C)=C[C@@H]1C[C@H](C)[C@H]2CC[C@H](C)c3c(O[C@@H]4O[C@@H](C)[C@@H](O)[C@@H](O)[C@@H]4O)c(O)c(C)c1c32 [PsG] | 5.50 |
| CC(=O)O[C@H]1[C@@H](O)[C@H](O)[C@H](Oc2c(C)c3c4c(c2O)[C@@H](C)CC[C@@H]4[C@@H](C)C[C@H]3C=C(C)C)O[C@H]1C [PsQ] | 5.13 |

From here, focus on the item given below.
[ask] Retrieve pIC50 measured for CC(=O)OC1COC(Oc2c(C)c3c4c(c2O)C(C)CCC4C(C)CC3C=C(C)C)C(O)C1O (stereo not drawn) [PsU] and print it.
[reply] 5.50

---

Test system: PC-3 (prostate cancer)
Experiment: MTT cytotoxic assay, PC-3
Assay type: cell-based
Conditions: Homo sapiens, PC-3, 48 h
Method: The cell lines HeLa (cervical cancer), PC-3 (prostate cancer), HCT116 (colorectal cancer), MCF-7 (breast cancer) and normal human cell line BJ (skin fibroblasts) were used and maintained in DMEM with 5% of FBS and gentamicin 50 μg/mL. […] Cells were harvested, counted, and transferred into 96 well plates and incubated for 24 h prior to the addition of the test compounds. […] Data were normalized and analyzed using non-linear regression to elucidate IC50 values from sigmoidal dose-response curves. […]
property_measured: GI50 (µM)
Kindly answer with a numeric value in µM, unit omitted.

| compound | GI50 / µM |
| --- | --- |
| CC(C)=C[C@@H]1C[C@H](C)[C@H]2CC[C@H](C)c3c(O)c(O[C@@H]4O[C@@H](C)[C@@H](O)[C@@H](O)[C@@H]4O)c(C)c1c32 [PsP] | 13.8 |

[ask] Lab note: record GI50 of CC(=O)O[C@@H]1[C@H](Oc2c(C)c3c4c(c2O)[C@@H](C)CC[C@@H]4[C@@H](C)C[C@H]3C=C(C)C)O[C@@H](C)[C@@H](O)[C@H]1O [PsS] tested on PC-3 (prostate cancer).
[reply] 52.1

[ask] Lab note: record GI50 of CC(C)=C[C@@H]1C[C@H](C)[C@H]2CC[C@H](C)c3c(O)c(O[C@@H]4OC[C@@H](O)[C@@H](O)[C@@H]4O)c(C)c1c32 [PsT] tested on PC-3 (prostate cancer).
[reply] 22

[ask] Lab note: record GI50 of CC(=O)OC1COC(Oc2c(C)c3c4c(c2O)C(C)CCC4C(C)CC3C=C(C)C)C(O)C1O (stereo not drawn) [PsU] tested on PC-3 (prostate cancer).
[reply] 24.8

[ask] Lab note: record GI50 of CC(=O)O[C@H]1[C@@H](O)[C@H](O)[C@H](Oc2c(C)c3c4c(c2O)[C@@H](C)CC[C@@H]4[C@@H](C)C[C@H]3C=C(C)C)O[C@H]1C [PsQ] tested on PC-3 (prostate cancer).
[reply] 7.81

[ask] Lab note: record GI50 of CC(C)=CCC[C@H](C)[C@H]1CC[C@H](C)c2c1cc(C)c(O[C@@H]1OC[C@@H](O)[C@@H](O)[C@@H]1O)c2O [seco-PsJ] tested on PC-3 (prostate cancer).
[reply] 37.2

[ask] Lab note: record GI50 of CC(C)=CCC[C@H](C)[C@H]1CC[C@H](C)c2c1cc(C)c(O[C@@H]1O[C@@H](C)[C@@H](O)[C@@H](O)[C@@H]1O)c2O [seco-PsK] tested on PC-3 (prostate cancer).
[reply] 13.6

[ask] Lab note: record GI50 of CC(C)=C[C@@H]1C[C@H](C)[C@H]2CC[C@H](C)c3c(O[C@@H]4O[C@@H](C)[C@@H](O)[C@@H](O)[C@@H]4O)c(O)c(C)c1c32 [PsG] tested on PC-3 (prostate cancer).
[reply] 8.83

[ask] Lab note: record GI50 of CC(=O)OC1COC(Oc2c(C)c3c4c(c2O)C(C)CCC4C(C)CC3C=C(C)C)C(O)C1OC(C)=O (stereo not drawn) [3-O-Ac-PsU] tested on PC-3 (prostate cancer).
[reply] 26.4

All values here come from paper PMC3083654.
